- Target: T1, hErbB3.hFc (soluble dimeric human ErbB3 extracellular domain fused to human Fc) (human)
- T1 construct: called dimeric
- T1 sequence (chain, as listed by the source limits assumed): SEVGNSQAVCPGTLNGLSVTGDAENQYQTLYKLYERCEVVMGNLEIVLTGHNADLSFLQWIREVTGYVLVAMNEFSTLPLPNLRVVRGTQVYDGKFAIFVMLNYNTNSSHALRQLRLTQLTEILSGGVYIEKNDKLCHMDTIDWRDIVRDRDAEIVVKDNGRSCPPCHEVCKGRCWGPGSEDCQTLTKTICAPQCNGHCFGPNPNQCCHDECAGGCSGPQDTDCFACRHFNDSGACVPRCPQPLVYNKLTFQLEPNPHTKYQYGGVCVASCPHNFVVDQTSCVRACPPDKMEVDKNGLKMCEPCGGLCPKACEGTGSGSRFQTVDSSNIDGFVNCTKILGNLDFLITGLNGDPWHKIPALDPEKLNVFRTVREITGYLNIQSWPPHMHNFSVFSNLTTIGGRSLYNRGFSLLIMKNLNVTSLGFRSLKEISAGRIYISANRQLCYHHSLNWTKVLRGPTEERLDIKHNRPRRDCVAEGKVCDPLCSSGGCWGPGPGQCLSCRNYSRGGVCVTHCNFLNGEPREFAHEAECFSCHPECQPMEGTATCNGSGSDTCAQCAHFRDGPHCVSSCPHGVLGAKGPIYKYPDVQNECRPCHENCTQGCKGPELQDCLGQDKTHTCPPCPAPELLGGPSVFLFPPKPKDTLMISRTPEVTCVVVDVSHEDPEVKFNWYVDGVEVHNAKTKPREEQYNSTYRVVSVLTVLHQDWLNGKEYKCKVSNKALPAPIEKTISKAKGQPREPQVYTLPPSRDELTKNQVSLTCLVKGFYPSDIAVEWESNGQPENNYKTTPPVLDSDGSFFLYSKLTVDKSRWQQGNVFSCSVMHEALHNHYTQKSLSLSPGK
- Assay Remarks: SPR (Biacore), 25 C, mAb capture format
Endpoint: kon (M⁻¹ s⁻¹)

1. H1M1828N (antibody, V domains shown, Hybridoma chimeric antibody: human variable domains, mouse constant domains (H1M prefix, mouse Fc)) VH: EVQLVESGGGLVQPGRSLRLSCAASGFTFDDYAMYWVRQAPGKGLEWVSGISWNSGSIGYADSVKGRFTISRDNAKNSLYLQMDSLRAEDTALYYCARDMMEVDLYGMDVWGQGTTVTVSS VL: DIQMTQSPSSVSASVGDRVTITCRASQDISSWLAWYQQKPGTAPKFLIYETSSLQSGVPSRFSGSGSGTDFILTISSLQPEDFATYYCQQTDSFPHTFGQGTKLEIR	1.56e+06
2. H2M1930N (antibody, V domains shown, Hybridoma chimeric antibody: human variable domains, mouse IgG2 Fc (H2M prefix)) VH: EVQLVESGGGLVKPGGSLRLSCVASGFTFSSYNMNWVRQAPGKGLEWVSFISGSSNYIHYADSVKGRFTISRDNAKNALYLQMNSLRAEDTAVYYCARDDGDYDWFDPWGQGTLVTVSS VL: EIVLTQSPGTLSLSPGERATLSCRASQSVSSSYLAWYQQKPGQAPRLLIYGTSSRATGIPDRFSGSGSGTDFTLTISRLEPEDFAVYYCQQYDNSYTFGQGTKLEIK	404000
